- TARGET_SYSTEM: HLA-A*02:03
- ASSAY_PROTOCOL: IEDB peptide-MHC binding, purified MHC/direct/fluorescence; filed as Kd, often an IC50 or EC50 that approximates it; bounds were set here for any values at or beyond the usual limits of such assays
- EXPERIMENTAL_SETUP: source organism: Cryptosporidium parvum Iowa II
pKd: −log10 of the molar value.
MEASURED_METRIC: pKd

Task: Find the measured pKd of `TVFRNQNRV` and report it.
Result: ≤ 4.70

====

- TARGET_SYSTEM: HLA-A*31:01
- ASSAY_PROTOCOL: IEDB peptide-MHC binding, purified MHC/competitive/radioactivity; filed as Kd, often an IC50 or EC50 that approximates it; bounds were set here for any values at or beyond the usual limits of such assays
- EXPERIMENTAL_SETUP: source organism: Triticum aestivum
MEASURED_METRIC: Kd

Task: Provide one value: measured Kd of `KSQVLQQSTY`
Result: ≥ 47.2 µM

====

- TARGET_SYSTEM: HLA-A*69:01
- ASSAY_PROTOCOL: IEDB peptide-MHC binding, purified MHC/direct/fluorescence; filed as Kd, often an IC50 or EC50 that approximates it; bounds were set here for any values at or beyond the usual limits of such assays
- EXPERIMENTAL_SETUP: source organism: Camelpox virus CMS
MEASURED_METRIC: Kd
Answer format reminder: number followed by unit.

Task: Return Kd for the following sequence: `DLYDMIHNV`
Result: 2 nM

====

- TARGET_SYSTEM: HLA-A*01:01
- ASSAY_PROTOCOL: IEDB peptide-MHC binding, purified MHC/competitive/radioactivity; filed as Kd, often an IC50 or EC50 that approximates it; bounds were set here for any values at or beyond the usual limits of such assays
- EXPERIMENTAL_SETUP: source organism: SARS coronavirus Tor2
MEASURED_METRIC: pKd
Note on units: pKd is unitless, being -log10 of a concentration expressed in mol/L.

Task: Tell me its pKd on HLA-A*01:01: `PTITQMNLKY`
Result: 7.05

Task: Report measured pKd on HLA-A*01:01; entry: `TAEDMLNPNY`
Result: 5.98

Task: State recorded pKd with HLA-A*01:01, entry `VTPSGTWLTY` , no comment.
Result: 7.18

Task: Provide measured pKd on HLA-A*01:01 for `WFITQRNFF` please.
Result: 5.96

Task: Report value only: pKd, HLA-A*01:01, `FTILCLVPAY`
Result: 6.34

Task: Provide pKd, system HLA-A*01:01, entry `LSFKELLVY`
Result: 7.07

Task: Write down measured pKd (HLA-A*01:01) for this sequence. `AFNCTFEYI`
Result: 5.85

Task: Supply pKd measured with HLA-A*01:01 for `SAAAYFVGY` .
Result: 6.51

====

- TARGET_SYSTEM: HLA-A*68:02
- ASSAY_PROTOCOL: IEDB peptide-MHC binding, purified MHC/competitive/radioactivity; filed as Kd, often an IC50 or EC50 that approximates it; bounds were set here for any values at or beyond the usual limits of such assays
- EXPERIMENTAL_SETUP: source organism: Dengue virus 1 Brazil/97-11/1997
MEASURED_METRIC: pKd
A value of pKd is the negative decimal logarithm of a concentration given in moles per litre.

Task: Identify measured pKd associated with `LTMKEKSWLV`
Result: 6.60

====

Consider the following sequences; for each one, report its Kd.
- TARGET_SYSTEM: HLA-B*08:01
- ASSAY_PROTOCOL: IEDB peptide-MHC binding, purified MHC/direct/fluorescence; filed as Kd, often an IC50 or EC50 that approximates it; bounds were set here for any values at or beyond the usual limits of such assays
- EXPERIMENTAL_SETUP: source organism: Giardia lamblia ATCC 50803

Task: Recall and state the measured Kd for `RTDPVIDNI` .
Result: ≥ 20 µM

Task: Entry `KVGVYKMHK` needs its Kd filled in; supply it.
Result: ≥ 20 µM

====

- TARGET_SYSTEM: HLA-A*02:16
- ASSAY_PROTOCOL: IEDB peptide-MHC binding, purified MHC/competitive/fluorescence; filed as Kd, often an IC50 or EC50 that approximates it; bounds were set here for any values at or beyond the usual limits of such assays
- EXPERIMENTAL_SETUP: source organism: Escherichia coli HS
MEASURED_METRIC: Kd

Task: State the measured Kd (HLA-A*02:16) of `ISLWGSLLK`
Result: ≥ 20 µM

====

- TARGET_SYSTEM: HLA-B*44:02
- ASSAY_PROTOCOL: IEDB peptide-MHC binding, purified MHC/direct/fluorescence; filed as Kd, often an IC50 or EC50 that approximates it; bounds were set here for any values at or beyond the usual limits of such assays
- EXPERIMENTAL_SETUP: source organism: Influenza A virus (A/chicken/Hunan/fg/2004(H5N1))
pKd: −log10 of the molar value.
MEASURED_METRIC: pKd

Task: Fill in pKd for record `DTVNRTHQY`
Result: ≤ 4.70

====

- TARGET_SYSTEM: HLA-B*57:01
- ASSAY_PROTOCOL: IEDB peptide-MHC binding, purified MHC/competitive/radioactivity; filed as Kd, often an IC50 or EC50 that approximates it; bounds were set here for any values at or beyond the usual limits of such assays
- EXPERIMENTAL_SETUP: source organism: Dengue virus 1 Brazil/97-11/1997
MEASURED_METRIC: Kd
Express the reported value numerically, then name its unit.

Task: Look up HLA-B*57:01 data: Kd of `ATRLENIMW` , then report it.
Result: 2.31 nM

Task: Enter recorded Kd with HLA-B*57:01 for `RASFIEVKTC` here.
Result: 53.7 nM

Task: # assay system HLA-B*57:01: give Kd of `CTSQILLMRT`
Result: 2410 nM

Task: Return reported Kd for target or system HLA-B*57:01, item `WTSGASTSQE` .
Result: 206 nM

Task: Give measured Kd for `GTSITQKGII` (HLA-B*57:01).
Result: 9330 nM

====

- TARGET_SYSTEM: HLA-B*15:01
- ASSAY_PROTOCOL: IEDB peptide-MHC binding, purified MHC/direct/fluorescence; filed as Kd, often an IC50 or EC50 that approximates it; bounds were set here for any values at or beyond the usual limits of such assays
- EXPERIMENTAL_SETUP: source organism: Campylobacter jejuni
MEASURED_METRIC: pKd
Please express pKd as -log10 of the molar concentration.

Task: Query pKd for `WFGHLASDW`
Result: 5.15

====

Answer each item with its documented pKd.
- TARGET_SYSTEM: HLA-A*24:02
- ASSAY_PROTOCOL: IEDB peptide-MHC binding, purified MHC/competitive/radioactivity; filed as Kd, often an IC50 or EC50 that approximates it; bounds were set here for any values at or beyond the usual limits of such assays
- EXPERIMENTAL_SETUP: source organism: SARS coronavirus Tor2
pKd: −log10 of the molar value.

Task: Hello, please tell me recorded pKd for this one: `WFITQRNFF`
Result: ≤ 4.49

Task: Indicate the recorded pKd value for this sequence: `TYVPSQERNF`
Result: 7.14

Task: Give the reported value of pKd for this record: `LSFKELLVY`
Result: 5.03

Task: State its pKd: `AFNCTFEYI`
Result: ≤ 4.15

Task: Determine from records and report pKd for `AYLRKHFSM`
Result: ≤ 4.08

Task: Please indicate pKd recorded for `LQSLENVAY`
Result: ≤ 4.11

Task: Please report the measured pKd for `FTILCLVPAY`
Result: ≤ 4.15

Task: Determine its reported pKd: `PTITQMNLKY`
Result: ≤ 4.15

Task: Output measured pKd for this item: `LSDDAVVCY`
Result: ≤ 4.11

Task: Return reported pKd. Input sequence: `GPDDQIGYY`
Result: ≤ 4.11

Task: Kindly indicate its recorded pKd. Item: `GYKNVRITF`
Result: 5.16

Task: Complete the entry with pKd for `SAAAYFVGY`
Result: 5.41

Task: Annotate the sequence `AEDMLNPNY` with its measured pKd.
Result: ≤ 4.11

Task: Please indicate pKd recorded for `TAEDMLNPNY`
Result: ≤ 4.15

Task: Dear colleague, please send me the reported pKd for `VTPSGTWLTY` when you can.
Result: ≤ 4.24

====

- TARGET_SYSTEM: HLA-A*26:01
- ASSAY_PROTOCOL: IEDB peptide-MHC binding, purified MHC/competitive/radioactivity; filed as Kd, often an IC50 or EC50 that approximates it; bounds were set here for any values at or beyond the usual limits of such assays
- EXPERIMENTAL_SETUP: source organism: Mammarenavirus tacaribeense
MEASURED_METRIC: Kd

Task: # assay system HLA-A*26:01: give Kd of `YCDPKRFFL`
Result: ≥ 77.9 µM
